testedSystem: ΔF508-CFTR (Homo sapiens, UniProt P13569, DEL508-508)
Construct: expressed in transfected cells
Sequence (P13569 with tags, fused parts or gaps DEL508-508): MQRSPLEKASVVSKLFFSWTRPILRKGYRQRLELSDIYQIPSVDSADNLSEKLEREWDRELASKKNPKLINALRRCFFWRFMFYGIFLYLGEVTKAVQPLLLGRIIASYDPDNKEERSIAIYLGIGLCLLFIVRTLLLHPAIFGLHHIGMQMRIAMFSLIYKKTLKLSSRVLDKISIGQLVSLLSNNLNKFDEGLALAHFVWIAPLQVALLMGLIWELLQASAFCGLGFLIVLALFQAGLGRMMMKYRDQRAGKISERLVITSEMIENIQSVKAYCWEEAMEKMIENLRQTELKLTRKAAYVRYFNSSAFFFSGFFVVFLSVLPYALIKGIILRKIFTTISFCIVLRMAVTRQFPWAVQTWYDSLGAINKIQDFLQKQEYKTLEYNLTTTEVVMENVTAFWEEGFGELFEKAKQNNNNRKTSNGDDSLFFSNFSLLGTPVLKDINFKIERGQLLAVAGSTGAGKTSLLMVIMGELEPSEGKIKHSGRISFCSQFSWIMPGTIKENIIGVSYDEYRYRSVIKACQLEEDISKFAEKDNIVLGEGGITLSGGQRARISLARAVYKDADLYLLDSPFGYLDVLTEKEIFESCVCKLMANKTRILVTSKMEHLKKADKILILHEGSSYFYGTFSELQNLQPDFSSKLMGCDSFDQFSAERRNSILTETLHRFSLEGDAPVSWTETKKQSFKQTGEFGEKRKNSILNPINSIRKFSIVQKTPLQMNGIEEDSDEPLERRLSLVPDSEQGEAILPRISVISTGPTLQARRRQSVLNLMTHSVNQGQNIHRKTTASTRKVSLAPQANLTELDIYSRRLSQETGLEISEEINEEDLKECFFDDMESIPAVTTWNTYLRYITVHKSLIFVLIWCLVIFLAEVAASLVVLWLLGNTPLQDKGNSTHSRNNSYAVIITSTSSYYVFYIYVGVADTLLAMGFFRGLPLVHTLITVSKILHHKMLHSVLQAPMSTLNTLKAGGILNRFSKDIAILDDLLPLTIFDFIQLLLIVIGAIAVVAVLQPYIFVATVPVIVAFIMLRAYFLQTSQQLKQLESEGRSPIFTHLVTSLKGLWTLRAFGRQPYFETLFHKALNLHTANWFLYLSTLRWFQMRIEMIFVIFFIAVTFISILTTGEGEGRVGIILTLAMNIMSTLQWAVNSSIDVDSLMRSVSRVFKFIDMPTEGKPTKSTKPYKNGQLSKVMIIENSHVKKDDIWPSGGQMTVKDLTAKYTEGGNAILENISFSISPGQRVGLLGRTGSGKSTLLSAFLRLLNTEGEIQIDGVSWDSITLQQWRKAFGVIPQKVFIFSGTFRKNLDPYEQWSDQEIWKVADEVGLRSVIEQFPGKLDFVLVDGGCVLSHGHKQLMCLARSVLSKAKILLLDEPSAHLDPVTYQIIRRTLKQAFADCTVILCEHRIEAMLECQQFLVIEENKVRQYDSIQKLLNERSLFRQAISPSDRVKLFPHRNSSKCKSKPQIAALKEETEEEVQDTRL
assayMethodText: Membrane potential optical assay (FRET voltage-sensor dyes, VIPR), identification of potentiator compounds
Assay type: cell-based
conditionDetails: Table 3; assay not given; read-out: % Activity (% Efficacy, relative efficacy)
In this section we review reported Emax values for a set of molecules.

{"moleculeSmiles": "O=C(Nc1ccc(N2CCCC2)cc1C(F)(F)F)c1c[nH]c2ccc(F)cc2c1=O", "Emax": "25 to 100%"}
{"moleculeSmiles": "CC(C)c1cccc(-c2ccccc2NC(=O)c2c[nH]c3ccccc3c2=O)c1", "Emax": "25 to 100%"}
{"moleculeSmiles": "CC(C)c1cc(C(F)(F)F)c(NC(=O)c2c[nH]c3ccccc3c2=O)cc1O", "Emax": "> 100%"}
{"moleculeSmiles": "O=C(Nc1ccccc1Oc1ccc(Cl)cc1Cl)c1c[nH]c2ccccc2c1=O", "Emax": "25 to 100%"}
{"moleculeSmiles": "O=C(Nc1cc(O)cc(C(F)(F)F)c1)c1c[nH]c2ccc(F)cc2c1=O", "Emax": "25 to 100%"}
{"moleculeSmiles": "CCn1cc(C(=O)Nc2ccccc2)c(=O)c2cc(OC)ccc21", "Emax": "< 25%"}
{"moleculeSmiles": "N#Cc1c[nH]c2cc(NC(=O)c3c[nH]c4ccccc4c3=O)ccc12", "Emax": "25 to 100%"}
{"moleculeSmiles": "CC(C)c1ccc(NC(=O)OC(C)(C)C)cc1NC(=O)c1c[nH]c2ccccc2c1=O", "Emax": "25 to 100%"}

###

testedSystem: ΔF508-CFTR (Homo sapiens, UniProt P13569, DEL508-508)
Construct: expressed in transfected cells
assayMethodText: Membrane potential optical assay (FRET voltage-sensor dyes, VIPR), identification of potentiator compounds
Assay type: cell-based
conditionDetails: Table 3; assay not given; read-out: % Activity (% Efficacy, relative efficacy)
Text: […]
reportedEndpoint: Emax

{"molecule": "O=C(Nc1ccc(-c2ccccc2)cc1)c1c[nH]c2ccccc2c1=O [Compound 397]", "testedSystem": "ΔF508-CFTR (Homo sapiens, UniProt P13569, DEL508-508)", "measuredResult": "25 to 100%"}
{"molecule": "O=C(Nc1cccc2ncccc12)c1c[nH]c2ccccc2c1=O [Compound 191]", "testedSystem": "ΔF508-CFTR (Homo sapiens, UniProt P13569, DEL508-508)", "measuredResult": "< 25%"}
{"molecule": "COCCOCC(C)(C)c1ccc(NC(=O)c2c[nH]c3ccccc3c2=O)cc1O [Compound 126]", "testedSystem": "ΔF508-CFTR (Homo sapiens, UniProt P13569, DEL508-508)", "measuredResult": "25 to 100%"}
{"molecule": "CCC(C)c1ccccc1NC(=O)c1c[nH]c2ccccc2c1=O (centres unmarked) [Compound 142]", "testedSystem": "ΔF508-CFTR (Homo sapiens, UniProt P13569, DEL508-508)", "measuredResult": "25 to 100%"}
{"molecule": "N#Cc1c(Cl)cccc1NC(=O)c1c[nH]c2ccccc2c1=O [Compound 222]", "testedSystem": "ΔF508-CFTR (Homo sapiens, UniProt P13569, DEL508-508)", "measuredResult": "25 to 100%"}

###

Reported Emax values follow for various compounds
testedSystem: ΔF508-CFTR (Homo sapiens, UniProt P13569, DEL508-508)
Construct: expressed in transfected cells
assayMethodText: Membrane potential optical assay (FRET voltage-sensor dyes, VIPR), identification of potentiator compounds
Type: cell-based
conditionDetails: Table 3; assay not given; read-out: % Activity (% Efficacy, relative efficacy)
reportedEndpoint: Emax

{"compound": "Cc1cccc(NC(=O)c2c[nH]c3ccccc3c2=O)n1 [Compound 173]", "reportedEndpoint": "Emax", "measuredResult": "< 25%"}
{"compound": "Cn1cnnc1-c1ccc(NC(=O)c2c[nH]c3ccccc3c2=O)cc1 [Compound 301]", "reportedEndpoint": "Emax", "measuredResult": "< 25%"}
{"compound": "CC(C)(C)c1cc(F)c(NC(=O)c2c[nH]c3ccccc3c2=O)cc1O [Compound 143]", "reportedEndpoint": "Emax", "measuredResult": "25 to 100%"}
{"compound": "O=C(Nc1cc(C(F)(F)F)cc(C(F)(F)F)c1)c1c[nH]c2ccccc2c1=O [Compound 154]", "reportedEndpoint": "Emax", "measuredResult": "< 25%"}
{"compound": "Cc1cc(C2CCCCC2)ccc1NC(=O)c1c[nH]c2ccccc2c1=O [Compound 647]", "reportedEndpoint": "Emax", "measuredResult": "25 to 100%"}
{"compound": "O=C(Nc1ccc2c(c1)S(=O)(=O)C=C2)c1c[nH]c2ccccc2c1=O [Compound 446]", "reportedEndpoint": "Emax", "measuredResult": "< 25%"}
{"compound": "O=C(Nc1cc2[nH]ccc2cc1Cl)c1c[nH]c2ccccc2c1=O [Compound 32]", "reportedEndpoint": "Emax", "measuredResult": "25 to 100%"}
{"compound": "CC(C)(C)OC(=O)N1CCc2c(cccc2NC(=O)c2c[nH]c3ccccc3c2=O)C1 [Compound 427]", "reportedEndpoint": "Emax", "measuredResult": "25 to 100%"}
{"compound": "O=C(Nc1ccccc1N1CCCCC1)c1c[nH]c2ccccc2c1=O [Compound 26]", "reportedEndpoint": "Emax", "measuredResult": "25 to 100%"}
{"compound": "Cc1cccc2[nH]cc(C(=O)Nc3ccc(N4C[C@@H]5CC[C@H]4C5)cc3C(F)(F)F)c(=O)c12 [Compound 582]", "reportedEndpoint": "Emax", "measuredResult": "25 to 100%"}
{"compound": "O=C(Nc1ccc(N2CC[C@@H](O)C2)cc1C(F)(F)F)c1c[nH]c2ccccc2c1=O [Compound 705]", "reportedEndpoint": "Emax", "measuredResult": "25 to 100%"}
{"compound": "CC(C)(C)c1cc2cc[nH]c2cc1NC(=O)c1c[nH]c2cc(OC(F)(F)F)ccc2c1=O [Compound 632]", "reportedEndpoint": "Emax", "measuredResult": "25 to 100%"}
{"compound": "O=C(Nc1ccccc1OCc1ccccc1)c1c[nH]c2ccccc2c1=O [Compound 240]", "reportedEndpoint": "Emax", "measuredResult": "25 to 100%"}
{"compound": "CC(C)c1ccc(NC(=O)c2c[nH]c3ccccc3c2=O)cc1 [Compound 425]", "reportedEndpoint": "Emax", "measuredResult": "25 to 100%"}
{"compound": "CC1(c2cc(F)c(NC(=O)c3cnc4ccccc4c3O)cc2O)CCCCCCC1 [Compound 403]", "reportedEndpoint": "Emax", "measuredResult": "25 to 100%"}
{"compound": "O=C(Nc1cc(C(=O)O)c2cc[nH]c2c1)c1c[nH]c2ccccc2c1=O [Compound 711]", "reportedEndpoint": "Emax", "measuredResult": "25 to 100%"}
{"compound": "O=C(Nc1ccccc1-c1cccc(OC(F)(F)F)c1)c1c[nH]c2ccccc2c1=O [Compound 253]", "reportedEndpoint": "Emax", "measuredResult": "25 to 100%"}
{"compound": "CC(C)CNC(=O)c1cc2cc[nH]c2cc1NC(=O)c1c[nH]c2ccccc2c1=O [Compound 343]", "reportedEndpoint": "Emax", "measuredResult": "25 to 100%"}
{"compound": "Cc1ccc2c(c1)c(=O)c(C(=O)Nc1ccccc1-c1ccccc1)cn2C [Compound 128]", "reportedEndpoint": "Emax", "measuredResult": "< 25%"}
{"compound": "CC(C)(C)c1ccc(O)cc1NC(=O)c1c[nH]c2ccccc2c1=O [Compound 662]", "reportedEndpoint": "Emax", "measuredResult": "> 100%"}
{"compound": "N#Cc1ccccc1NC(=O)c1c[nH]c2ccccc2c1=O [Compound 95]", "reportedEndpoint": "Emax", "measuredResult": "25 to 100%"}
{"compound": "Cc1cccc2[nH]cc(C(=O)Nc3ccc(N4CCC[C@H]4C)cc3C(F)(F)F)c(=O)c12 [Compound 697]", "reportedEndpoint": "Emax", "measuredResult": "25 to 100%"}
{"compound": "CC(C)(C)c1cc(C(C)(C)C)c(C(F)F)cc1NC(=O)c1c[nH]c2ccccc2c1=O [Compound 438]", "reportedEndpoint": "Emax", "measuredResult": "25 to 100%"}
{"compound": "COc1cc(NC(=O)c2c[nH]c3ccccc3c2=O)cc(C(F)(F)F)c1 [Compound 691]", "reportedEndpoint": "Emax", "measuredResult": "25 to 100%"}
{"compound": "Cc1ccc(C(N)=O)c(NC(=O)c2c[nH]c3ccccc3c2=O)c1 [Compound 335]", "reportedEndpoint": "Emax", "measuredResult": "< 25%"}
{"compound": "COc1cccc(OC)c1-c1ccccc1NC(=O)c1c[nH]c2ccccc2c1=O [Compound 49]", "reportedEndpoint": "Emax", "measuredResult": "25 to 100%"}
{"compound": "O=C(Nc1ccc(OC(F)(F)F)cc1Cl)c1c[nH]c2ccccc2c1=O [Compound 628]", "reportedEndpoint": "Emax", "measuredResult": "25 to 100%"}
{"compound": "CN(C)c1ccc(-c2ccccc2NC(=O)c2c[nH]c3ccccc3c2=O)cc1 [Compound 12]", "reportedEndpoint": "Emax", "measuredResult": "25 to 100%"}
{"compound": "N#Cc1ccc(NC(=O)c2c[nH]c3ccccc3c2=O)cc1 [Compound 194]", "reportedEndpoint": "Emax", "measuredResult": "< 25%"}
{"compound": "O=C(Nc1ccccc1N1CCN(C(=O)c2ccccc2)CC1)c1c[nH]c2ccccc2c1=O [Compound 321]", "reportedEndpoint": "Emax", "measuredResult": "25 to 100%"}

Where do the numbers come from? From patent US8802700B2.
